Assay: Thin-layer chromatography, retention factor Rf as lipophilicity
Type: physicochemical
Details: Mn(III) complex; silica gel TLC plates, 1:1:8 KNO3-saturated H2O:H2O:acetonitrile
parameter-measured: Rf (compound path/solvent path)

- smiles-text: "C[n+]1ccccc1-c1c2nc(c(-c3cccc[n+]3C)c3ccc([nH]3)c(-c3cccc[n+]3C)c3nc(c(-c4cccc[n+]4C)c4ccc1[nH]4)C=C3)C=C2.[Mn+3]"
  Rf (compound path/solvent path): 0.09

a. CCCCCCCC[n+]1ccccc1-c1c2nc(c(-c3cccc[n+]3CCCCCCCC)c3ccc([nH]3)c(-c3cccc[n+]3CCCCCCCC)c3nc(c(-c4cccc[n+]4CCCCCCCC)c4ccc1[nH]4)C=C3)C=C2.[Mn+3]
b. CCCC[n+]1ccccc1-c1c2nc(c(-c3cccc[n+]3CCCC)c3ccc([nH]3)c(-c3cccc[n+]3CCCC)c3nc(c(-c4cccc[n+]4CCCC)c4ccc1[nH]4)C=C3)C=C2.[Mn+3]
Problem: Pick the one with the larger Rf (compound path/solvent path): a vs b To answer, give the label that identifies your chosen option.
Solution: a
